Numbers sourced from patent US11566007B2.

Listed molecules paired with reported IC50
target: KRAS G12S (Homo sapiens (Human), UniProt P01116+P62937, G12S); assay: Ras-Raf (BRAF RBD) disruption / FRET / MOA assay, KRAS G12S; type: biochemical; conditions: Ras-Raf disruption/FRET/MOA assay; class symbols; read-out: KRAS G12S FRET data IC50
Sequence (P01116-2 other isoform, or with tags, fused parts or gaps G12S): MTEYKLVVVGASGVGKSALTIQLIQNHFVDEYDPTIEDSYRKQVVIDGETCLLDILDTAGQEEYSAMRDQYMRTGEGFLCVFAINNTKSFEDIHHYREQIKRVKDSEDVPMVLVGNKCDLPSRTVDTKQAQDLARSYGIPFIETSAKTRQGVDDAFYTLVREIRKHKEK
Sequence (P62937 whole entry): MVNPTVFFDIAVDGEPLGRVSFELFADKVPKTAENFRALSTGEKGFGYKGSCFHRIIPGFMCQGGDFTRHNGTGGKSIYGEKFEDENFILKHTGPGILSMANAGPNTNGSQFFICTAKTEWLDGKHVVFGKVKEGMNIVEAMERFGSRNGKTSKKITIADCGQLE

Look over these answered cases.
molecule	endpoint.name	result
C=CC(=O)N1CC[C@H](C(=O)N(C)[C@@H](CC(F)(F)F)C(=O)N[C@H]2Cc3cccc(c3)-c3ccc4c(c3)c(c(-c3cccnc3[C@H](C)OC)n4CC)CC(C)(C)COC(=O)[C@@H]3CCCN(N3)C2=O)C1 (atropisomer, axis not shown)	IC50	1 to 10 µM
C=CC(=O)N1CC[C@H](C(=O)N(C)[C@H](C(=O)N[C@H]2Cc3cccc(c3)-c3ccc4c(c3)c(c(-c3cccnc3[C@@H]3CCCO3)n4CC)CC(C)(C)COC(=O)[C@@H]3CCCN(N3)C2=O)C(C)C)C1 (atropisomer, axis not shown)	IC50	1 to 10 µM
CO[C@@H](C)c1ncccc1-c1c2c3cc(ccc3n1CC(F)(F)F)-c1cnc(o1)C[C@H](NC(=O)[C@H](C(C)C)N(C)C(=O)[C@H]1CCN(C(=O)C#CC(C)(C)N(C)C)C1)C(=O)N1CCC[C@H](N1)C(=O)OCC(C)(C)C2 (atropisomer, axis not shown)	IC50	1 to 10 µM
C=CC(=O)N1CC[C@H](C(=O)N(C)[C@H](C(=O)N[C@H]2Cc3cc(O)cc(c3)-c3cc4c(c(-c5ccccc5CCOC)n(CC)c4cn3)CC(C)(C)COC(=O)[C@@H]3CCCN(N3)C2=O)C(C)C)C1	IC50	> 10 µM

Next item in the queue.
Observed IC50 on KRAS G12S (Homo sapiens (Human), UniProt P01116+P62937, G12S), entry C=CC(=O)N1CC[C@H](C(=O)N(C)[C@H](C(=O)N[C@H]2Cc3cccc(c3)-c3ccc4c(c3)c(c(-c3cc(CN(C)C)cnc3[C@H](C)OC)n4CC)CC(C)(C)COC(=O)[C@@H]3CCCN(N3)C2=O)C(C)C)C1 [Example A523] , equals > 10 µM

###

Listed compounds paired with reported IC50
target: NRAS WT (Homo sapiens (Human), UniProt P01111+P62937); assay: Ras-Raf (BRAF RBD) disruption / FRET / MOA assay, NRAS WT; format: biochemical; conditions: read-out: IC50* NRAS WT FRET data
Sequence (P01111 whole entry): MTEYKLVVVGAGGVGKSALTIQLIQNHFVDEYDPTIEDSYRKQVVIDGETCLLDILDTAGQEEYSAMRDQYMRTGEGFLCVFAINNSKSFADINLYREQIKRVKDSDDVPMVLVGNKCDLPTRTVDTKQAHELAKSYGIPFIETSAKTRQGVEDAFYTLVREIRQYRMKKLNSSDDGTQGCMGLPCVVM
Sequence (P62937 whole entry): as the sequence (P62937 whole entry) above

Look over these answered cases.
compound	result
CCn1c(-c2cccnc2[C@H](C)OC)c2c3cc(ccc31)-c1nc(nn1C)C[C@H](NC(=O)[C@@H](COC1CN(C(=O)C#CC(C)(C)N(C)C)C1)C(C)C)C(=O)N1CCC[C@H](N1)C(=O)OCC(C)(C)C2 (atropisomer, axis not shown) [Example A720]	1000 to 10000 nM
C=CC(=O)N1CC[C@]2(C1)OCN([C@H](C(=O)N[C@H]1Cc3cccc(n3)-c3ccc4c(c3)c(c(-c3cccnc3[C@H](C)OC)n4CC)CC(C)(C)COC(=O)[C@@H]3CCCN(N3)C1=O)C(C)C)C2=O (atropisomer, axis not shown) [Example A652]	1000 to 10000 nM
CCn1c(-c2cccnc2[C@H](C)OC)c2c3cc(ccc31)C1=CCCN(C1)C[C@H](NC(=O)[C@H](C(C)C)N(C)C(=O)C1(F)CCN(C(=O)C#CC(C)(C)N(C)C)CC1)C(=O)N1CCC[C@H](N1)C(=O)OCC(C)(C)C2 (atropisomer, axis not shown) [Example A591]	100 to 1000 nM

Next item in the queue.
Observed IC50 on NRAS WT (Homo sapiens (Human), UniProt P01111+P62937), entry CO[C@@H](C)c1ncccc1-c1c2c3cc(ccc3n1CC(F)(F)F)-c1cc(cc(C(F)F)c1)C[C@H](NC(=O)[C@H](C(C)C)N(C)C(=O)[C@H]1CCN(C(=O)C#CC(C)(C)N3CCC3)C1)C(=O)N1CCC[C@H](N1)C(=O)OCC(C)(C)C2 (atropisomer, axis not shown) [Example A370] , equals 1000 to 10000 nM
